Entries and their measured kinase still bound, per cent of control follow.
Target: LATS1 (human) (UniProt O95835)
Sequence (O95835 whole entry, looked up): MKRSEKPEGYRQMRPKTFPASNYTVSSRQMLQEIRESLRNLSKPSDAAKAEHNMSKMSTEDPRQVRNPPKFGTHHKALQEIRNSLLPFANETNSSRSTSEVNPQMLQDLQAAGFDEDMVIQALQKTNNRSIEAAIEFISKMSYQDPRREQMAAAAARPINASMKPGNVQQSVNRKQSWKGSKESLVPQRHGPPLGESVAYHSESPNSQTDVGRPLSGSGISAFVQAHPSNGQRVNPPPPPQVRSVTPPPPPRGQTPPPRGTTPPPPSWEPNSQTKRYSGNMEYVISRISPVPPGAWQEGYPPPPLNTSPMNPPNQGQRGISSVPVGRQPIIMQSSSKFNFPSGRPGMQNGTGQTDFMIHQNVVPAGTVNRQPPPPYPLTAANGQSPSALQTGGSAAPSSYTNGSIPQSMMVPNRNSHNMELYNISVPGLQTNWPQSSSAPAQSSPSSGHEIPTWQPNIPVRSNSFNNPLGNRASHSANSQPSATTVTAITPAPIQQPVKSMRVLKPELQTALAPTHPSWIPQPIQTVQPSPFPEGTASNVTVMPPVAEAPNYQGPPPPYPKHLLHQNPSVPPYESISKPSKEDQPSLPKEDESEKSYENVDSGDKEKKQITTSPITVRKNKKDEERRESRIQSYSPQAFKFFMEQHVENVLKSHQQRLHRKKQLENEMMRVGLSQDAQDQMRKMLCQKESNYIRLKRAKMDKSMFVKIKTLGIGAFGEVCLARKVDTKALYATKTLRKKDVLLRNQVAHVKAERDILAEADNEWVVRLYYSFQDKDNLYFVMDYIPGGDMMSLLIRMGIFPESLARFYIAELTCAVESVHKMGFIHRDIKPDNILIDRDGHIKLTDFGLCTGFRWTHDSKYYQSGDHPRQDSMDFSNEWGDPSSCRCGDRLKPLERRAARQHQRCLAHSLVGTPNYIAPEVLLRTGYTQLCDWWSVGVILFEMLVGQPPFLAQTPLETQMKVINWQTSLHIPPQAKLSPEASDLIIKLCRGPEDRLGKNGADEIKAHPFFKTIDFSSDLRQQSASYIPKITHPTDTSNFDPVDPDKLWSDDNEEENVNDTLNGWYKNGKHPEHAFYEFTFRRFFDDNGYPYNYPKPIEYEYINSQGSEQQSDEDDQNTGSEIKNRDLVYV
Assay: KINOMEscan competition binding
Details: compound 10.0 µM
Return type: number; implicit unit %.

Cn1c(=O)n(-c2ccc(C(C)(C)C#N)cc2)c2c3cc(-c4cnc5ccccc5c4)ccc3ncc21 | 100
N#Cc1c(NC(=O)c2cccc3ccccc23)sc2c1CCCC2 | 93
C=CC(=O)Nc1cccc(Nc2nc(N[C@H]3CC[C@H](N(C)C)CC3)nc3c2ncn3C(C)C)c1 | 100
Cc1ccc2nc(NCCN)c3ncc(C)n3c2c1 | 100
O=C(NC1CC1)c1cccc(-c2ccc3c(NC(=O)C4CC4)n[nH]c3c2)c1 | 61

The reported value for `Cc1ccc(C(=O)Nc2cccc(C(F)(F)F)c2)cc1Nc1cncc(C(N)=O)c1` in terms of kinase still bound, per cent of control is 100

The reported value for `C[C@@H](Oc1cc(-n2cnc3ccc(CN4CCN(C)CC4)cc32)sc1C(N)=O)c1ccccc1C(F)(F)F` in terms of kinase still bound, per cent of control is 100

The reported value for `O=C(NOC[C@H](O)CO)c1ccc(F)c(F)c1Nc1ccc(I)cc1F` in terms of kinase still bound, per cent of control is 100

The reported value for `CCN1CCN(Cc2ccc(Nc3ncc4c(n3)N(C)c3ccccc3C(=O)N4C)cc2C(F)(F)F)CC1` in terms of kinase still bound, per cent of control is 100
